MEASUREMENT_NAME: melting point

Problem: Dear colleague, I am looking for the recorded melting point of the following compound: CC(C)(C)OC(=O)NCCCCCC(=O)OCC1OC(n2cc(C=CBr)c(=O)[nH]c2=O)CC1O (stereo not given)
Solution: 204 to 205 °C

Problem: And `COc1ccc(NCCn2nc(O)c3[nH]c4cc(Cl)ccc4c(=O)c3c2=O)cc1` ?
Solution: 239 to 241 °C

Problem: And `O=C1NC(=O)/C(=C/c2cn(-c3ccccc3)nc2OCc2ccccc2)S1` ?
Solution: > 300 °C

Problem: And `C=C(C)COc1ccc(CC(=O)OC)cc1[N+](=O)[O-]` ?
Solution: 30 to 31.5 °C

Problem: And `CCOC(=O)/C=C(C)/C=C/C=C(\C)C1=Cc2cc(Cl)cc(C)c2OC1` ?
Solution: 107 °C

Problem: And COc1ccc(C)cc1-c1ccc(S(=O)(=O)N2c3ccccc3CC2C(=O)NCCOc2ccc(CC(=O)O)cc2)cc1 (stereo not given) ?
Solution: 85 to 88 °C

Problem: And `CON=C(c1nnco1)c1ccccc1COc1cc(C)ccc1C` ?
Solution: 134 to 135 °C

Problem: And `CCCCCCCC[C@H](CC(=O)OC(C)(C)C)C(=O)N1C(=O)OC[C@@H]1C(C)C` ?
Solution: 58 to 59 °C

Problem: And `COc1ccc(Cn2c(=O)c3cccnc3n(CCCCl)c2=O)cc1` ?
Solution: 114 to 115 °C

Problem: And `CCCC(=O)Nc1cc(N(CCO)CCO)ccc1N=Nc1snc(C)c1C#N` ?
Solution: 175 to 178 °C

Problem: And CNC(=S)C1(c2cccc([N+](=O)[O-])c2)CCCCC1=O (stereo not given) ?
Solution: 128 to 132 °C

Problem: And `c1cn(CCCc2ccc(OCc3coc(-c4ccoc4)n3)cc2)cn1` ?
Solution: 85 to 87 °C

Problem: And CC(C)NC1CCCCC1O (stereo not given) ?
Solution: 54 to 55 °C

Problem: And CC(=O)OCC1OC(n2cc(C(Cl)=CI)c(=O)[nH]c2=O)CC1OC(C)=O (stereo not given) ?
Solution: 81 to 83 °C

Problem: And CCCc1c(OCCCCCCC2CC(=O)c3ccc(OCC(=O)OC)c(CCC)c3O2)ccc(C(C)=O)c1O (stereo not given) ?
Solution: 121 to 124 °C

Problem: And `COC(=O)NC(C)(C)c1ccc(CC#N)cc1` ?
Solution: 88 to 90 °C

Problem: And `Cc1ccc(-c2ccccc2C(=O)Nc2ccc(C(=O)N3C[C@@H]4CCCN4C(=S)c4ccccc43)cc2)cc1` ?
Solution: 140 to 145 °C

Problem: And `COc1ccc(F)cc1Oc1c(NS(=O)(=O)c2ccc(C(C)(C)C)cc2)ncnc1OC[C@@H]1COC(C)(C)O1` ?
Solution: > 86 °C

Problem: And `CC1(C)CN=C2N(C1)c1ccc(C(=O)O)cc1C21OCCCO1` ?
Solution: 151 to 153 °C

Problem: And `CCOC(=O)Cc1cccc2c(-c3ccc(N(C)C)cc3)nccc12` ?
Solution: 132 to 135 °C

Reference for the values: a melting point compilation (Tetko et al.; mined from patent text by program, amines drawn as free bases though some values may be those of a salt)
